PROCEDURE_TEXT: yeast display, Sf9 membrane polyspecificity reagent, FACS + sequencing; frameworks hold sequencing errors
OUTCOME_MEASURE: polyreactivity (PSR sort gate)

1) QVQLVESGGGLVQAGGSLRLSCAASGSTFNGYVMGWYRQAPGKERELVAAISRSGGSTYYADSVKGRFTISRDNAKNNVYLQMYSLKPEDTAVYSCAKGGYQHYWGQGTQVTVSS
high polyreactivity
2) QVQLVDSGGGLVQAGGSLRLSCDATGRIFRLYAMGWYRQAPGKERELVAAISWRGSSTNYADSVKGRFTISRDNAKNTVYLQRNSLKPEDTAVYYCAAPGRGGYYYWGQGTQVTVSS
high polyreactivity
3) QVQLVESGGGLVQARGSLRLSCAASGSTFIPNTMGWSRQAPGKERELVAAISRRGGSKNYADSVKGRFTISRDNAKNTVYLQMNSLNPEDTAVYYCAAASPRRYRYDYWGQGTQVTVSS
high polyreactivity

====

PROCEDURE_TEXT: yeast display, Sf9 membrane polyspecificity reagent, FACS + sequencing; frameworks hold sequencing errors
OUTCOME_MEASURE: polyreactivity (PSR sort gate)

Example results:
1) QVQLVESGGGLVQAGGSLRLSCAASGFIFDSYAMGWYRQAPGKERELVAAISYSGGNTYYADSVKGRFTISRDNAKNTVYLQMNSLKPEDTAVYYCAAEWSDSRWWRLWWYGEDDYWGQGTQVTVSS
high polyreactivity
2) QVQLVESGGGLVQAGGSLRLSCAASGRTCDRNTMGWYRQAPGKERELVAAISGSSARTYYADSVKGRFTISRDNAKNTVYLQMNSLKPEDTAVYYCNAEYGARAQHYEGDSWGQGTQVTVSS
high polyreactivity
3) QVQLVESGGGLVQAGGSLRLSCAASGSTFPPYAMGWYRQAPGKERELVAAISWSGSGSTYYADSVKGRFTISRDNAKNTVYLQMNSLKPEDTAVYYCAAGYVRVITPAYYYWGQGTQVTVSS
low polyreactivity
4) QVQLVESGGGLVQAGGSLRLSCAASGFFFAGYAMGWYRQAPGKERELVAAISSGGGSTYYADSVKGRFTISRDNAKNTVYLQMNSLKPEDTAVYYCAARRLYPPGYYYWGQGTQVTVSS
high polyreactivity
5) QVQLVESGGGLVQAGGSLRLSCADSGFIFRYNTMGWYRQAPGKERELVAAITSGDSTYYADSVKGRFTITRDNAKNTVYLQMNSLKPEDTEVYYCAARPYSGRNKYDYWGQGTQVTVSS
high polyreactivity

Input line: Returns the measured polyreactivity (PSR sort gate) for the input sequence. Input: QVQLVESGGALVQAGGSLRVSCAASGRIFRRNAMGWDRPAPGKERELVAGIDRSGGSTYYADSVKRRFTISRDNGKKTVYIQMNSLKPEDTAVYYCNTRAPYRVKSSGYWGLGTQVTVSS
Output line: high polyreactivity

Input line: Try QVQLVESGGGLVQAGGSLRLSCAASGFIFVKYAMGWYRQAPGKERELVAAISWSGGTTYYADSVKGRFTISRDNANNTVYLQMNSLKPEDTAVYYCAAEYYTGYFKYDYWGQGTQVTVSS next.
Output line: high polyreactivity

Input line: Try QDQLVESGGGLVQAGGSLRLSCAASGIIFYRYAMGWYRQAPGKERELVAAITWSGVSTSYADSVKGRFTISRDNAKNTVYLQMNSLKPEDTAVYYCNKDPGTLYGDMDSWGQGTQVTVSS next.
Output line: low polyreactivity

Input line: Try QVQLVESGGGLVQAGGSLRLSCAASGRIFDPYAMGWYRQAPGKERELVASISWSGGRTYYADSVKGRFTISRDNAKNTVYLQMNSLKPEDTAVYYCAARQWYRYKVRFDYWGQGTQVTVSS next.
Output line: high polyreactivity

Input line: Try QVQLVESGGGLVQAGGSLRLSCAASGRILIRNAMGWYRQAPGKERELVAAINRGGGSTYYADSVKGRFTISRDNAKNTVYLQMNSLKPEDTAVYYCAADRKAGYSRVDGDYWGQGTQVTVSS next.
Output line: low polyreactivity

Input line: Try QFQLVESGGGLVQAGGSLRLSCAASGRIFYYNAMGWYRQAPGKERELVAAITGGGSTNYADSVKGRFTISRDNAKNTVYLQMNSLKPEDTAVYYCAARHYPRNSWGYDYWGQGTQVTVSS next.
Output line: high polyreactivity
